Measurement Target: T1, human amylin 3(a) receptor (human calcitonin receptor co-expressed with RAMP-3) (human, UniProt P30988 25-474; O60896 24-148, limits assumed)
T1 sequence (looked up) 1: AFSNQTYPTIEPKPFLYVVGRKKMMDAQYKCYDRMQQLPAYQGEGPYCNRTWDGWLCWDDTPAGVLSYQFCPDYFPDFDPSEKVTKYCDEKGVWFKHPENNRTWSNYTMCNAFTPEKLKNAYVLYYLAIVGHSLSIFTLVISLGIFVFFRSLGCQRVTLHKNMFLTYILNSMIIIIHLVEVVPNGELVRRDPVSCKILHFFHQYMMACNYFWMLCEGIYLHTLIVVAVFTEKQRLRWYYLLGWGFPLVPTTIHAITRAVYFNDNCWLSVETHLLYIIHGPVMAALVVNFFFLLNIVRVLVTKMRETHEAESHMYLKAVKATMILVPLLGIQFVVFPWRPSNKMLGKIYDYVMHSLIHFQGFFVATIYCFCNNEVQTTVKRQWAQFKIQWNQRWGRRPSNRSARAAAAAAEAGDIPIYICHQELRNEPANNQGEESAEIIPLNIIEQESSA
T1 sequence (looked up) 2: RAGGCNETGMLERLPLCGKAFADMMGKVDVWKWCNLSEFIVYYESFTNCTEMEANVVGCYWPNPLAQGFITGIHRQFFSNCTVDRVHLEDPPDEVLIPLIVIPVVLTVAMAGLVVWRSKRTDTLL
Test Protocol: cell-based or functional assay
Numbered stars: 1 amine (or outer) side, 2 acyl side, 3 side chain; on linkers, the order of the positions; unused ones are H or OH. Bridge positions count the residues as written; N and C are the ends. Side chains are listed from the residue outwards. Ends that are not written are not given here. * marks the point of attachment. C20 diacid = O=C(O)CCCCCCCCCCCCCCCCCCC(=O)*; γGlu = O=C(O)[C@H](CCC(=O)[*:2])N[*:1]
Measurement Kind: Ratio hCT/hAmylin funct.

K([γGlu-γGlu-C20 diacid])CNTATCATQRLAEFLRHSSPNFGAIPSSTNVGSNTP-NH2 (disulfide 2-7 (inferred), also called compound 13)
2.2

1. {C20 diacid-γGlu}-KCNTATCATQRLAEFLRHSSPNFGAIPSSTNVGSETY-NH2 (disulfide 2-7 (inferred), also called compound 22)
2. K([γGlu-C20 diacid])CNTATCATQRLAEFLRHSSPNFGAIPSSTNVGSNTP-NH2 (disulfide 2-7 (inferred), also called compound 12)
Consider entries 1 and 2 . Which has the numerically lower Ratio hCT/hAmylin funct.? Respond with the label that goes with your answer.
2
